readout: melting point

Find the measured melting point of CSC1=NC2C=C(C(=O)NCC3CC3)C(NC(=O)c3cc(C(F)(F)F)nn3-c3ncccc3Cl)=C(Cl)C2S1 (stereo not shown) [Compound T94.1.14] and report it. 221 to 223 °C

Find the measured melting point of CC(C)NC(=O)c1cc2nc(C3CC3)n(C)c2c(Cl)c1NC(=O)c1cc(C(F)(F)F)nn1-c1ncccc1Cl [Compound T37.1.8] and report it. 242 to 244 °C

Find the measured melting point of CNC(=O)c1cc2nc(C(F)(F)F)ccc2c(C)c1NC(=O)c1cc(C(F)(F)F)nn1-c1ncccc1Cl [Compound T8.1.1] and report it. 227 to 230 °C

Find the measured melting point of CC(C)NC(=O)c1cc2ncn(C)c2c(Cl)c1NC(=O)c1cc(C(F)(F)F)nn1-c1ncccc1Cl [Compound T22.1.8] and report it. 150 to 155 °C

Find the measured melting point of Cc1nc2cc(C(=O)NC(C)C)c(NC(=O)c3cc(C(F)(F)F)nn3-c3ncccc3Cl)c(Cl)c2n1C [Compound T35.1.8] and report it. 248 to 250 °C

Find the measured melting point of CNC(=O)c1cc2nc(C(F)(F)F)ccc2cc1NC(=O)c1cc(Br)nn1-c1ncccc1Cl [Compound T8.1.153] and report it. 120 to 127 °C

Find the measured melting point of Cc1nc2cc(C(=O)NCC3CC3)c(NC(=O)c3cc(C(F)(F)F)nn3-c3ncccc3Cl)c(Cl)c2n1C [Compound T35.1.14] and report it. 233 to 235 °C

Find the measured melting point of Cn1c(C2CC2)nc2cc(C(=O)NCC3CC3)c(NC(=O)c3cc(C(F)(F)F)nn3-c3ncccc3Cl)c(Cl)c21 [Compound T37.1.14] and report it. 233 to 235 °C

Find the measured melting point of CNC(=O)c1cc2[nH]cnc2c(Cl)c1NC(=O)c1cc(C(F)(F)F)nn1-c1ncccc1Cl and report it. 190 to 192 °C

Find the measured melting point of Cn1cnc2cc(C(=O)NCC3CC3)c(NC(=O)c3cc(C(F)(F)F)nn3-c3ncccc3Cl)c(Cl)c21 [Compound T22.1.14] and report it. 148 to 151 °C

Find the measured melting point of CC(C)NC(=O)c1cc2[nH]cnc2c(Cl)c1NC(=O)c1cc(C(F)(F)F)nn1-c1ncccc1Cl [Compound T21.1.8] and report it. 200 to 203 °C

Find the measured melting point of O=C(NCC1CC1)c1cc2[nH]cnc2c(Cl)c1NC(=O)c1cc(C(F)(F)F)nn1-c1ncccc1Cl [Compound T21.1.14] and report it. 198 to 201 °C

Find the measured melting point of CNC(=O)c1cc2nc(C(F)(F)F)ccc2c(Cl)c1NC(=O)c1cc(C(F)(F)F)nn1-c1ncccc1Cl [Compound T8.1.2] and report it. 233 to 237 °C
